Overview of recorded Vg9 T cell %, flow staining for various binders
- SYSTEM: T1, T cell receptor (TCR) Vγ9 (TRGV9) (human, UniProt Q99603 21-122)
- T1 chain (looked up): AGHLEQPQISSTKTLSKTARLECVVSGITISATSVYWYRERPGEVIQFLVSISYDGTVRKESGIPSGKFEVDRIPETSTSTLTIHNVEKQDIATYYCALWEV
- TEST_DETAILS: cell-based or functional assay
METRIC_NAME: Vg9 T cell %, flow staining (%)

INSERT INTO measurements (binder, quantitative_readout) VALUES
  ('VG9B73 (antibody, human IgG1, kappa, V domains shown) VH: EVQLVQSGGGLVKPGGSLRLSCAASGFTFSNYDMNWVRQAPGKGLEWVSSISSSSSYIYYADSVKGRFTISRDNARNSLFLQMSSLRAEDTAVYYCAREIGVTGTTYYQDYGMDVWGQGTTVTVSS VL: EIVMTQSPGTLSLSPGERATLSCRASQSFSSNYLAWYQQKPGQAPRLLIYGASSRATGIPDRFSGSGSGTDFTLTISRLEPEDFALYYCQQYGSSPPFTFGQGTKVEIKR', 13.8),
  ('VG9B469 (antibody, human IgG1, kappa, V domains shown) VH: EVQLVESGGGLVKPGGSLRLSCAASGFTFSHYDMNWVRQAPGKGLEWVSSISSSSSYIFYADSVKGRFTISRDNAKNSLLLQMNSLRAEDTAVYHCARDRGVGDTSDYYSFGLDVWGQGTMVTVSS VL: DIVMTQSPGTLSLSPGERATLSCRASQNVSSTYLAWYQQKPGQAPRLLIYGACSRATGIPDRFSGSGSGTDFTLTISRLEPEDYAVYYCQQYGSSPPYTFGRGTKLEIKR', 7.8),
  ('VG9B463 (antibody, human IgG1, lambda, V domains shown) VH: EVQLVESGGGLVKPGGSLRLSCSASGFTFSNYDMNWVRQAPGKGLEWVSSISSSSSYIYYADSVKGRFTISRDNAKNSLYLQMNSLRAEDTAVYHCARDVGVTTDYYYYGMDVWGQGTTVTVSS VL: QPVLTQSSSASGTPGQRVTISCSGSSSNIGSNTVNWYQQFPGTAPKLLIYTNTQRPSGVPDRFSGSKSGTLVSLAISGLQSEDEADYYCAAWDDSLNAWVFGGGTKLTVLG', 4.1),
  ('VG9B98 (antibody, human IgG1, kappa, V domains shown) VH: EVQLVQSGGDLVKSGGSLRLSCAASGFTFSSYSMYWVRQAPGKGLEWVSSIGSSSTYIFYADSVKGRFTISRDNAMTSLYLQMNRLGAEDSAVYYCARDGELGPFEYWGQGTLVTVSS VL: EIVLTQSPGTLSLSPGERATLSCRASQSVSTSYLAWFQQKPGQAPRLLIFGTSSRATGIPDRFSGSGSGTDFTLTISRLEPEDFAVYHCLQYGRSPLTFGGGTKVDIKR', 7.2);
